Recorded values, source ChEMBL document CHEMBL4387769.

# testedOn: D(2) dopamine receptor (Homo sapiens, UniProt P14416)
# Sequence (P14416 whole entry): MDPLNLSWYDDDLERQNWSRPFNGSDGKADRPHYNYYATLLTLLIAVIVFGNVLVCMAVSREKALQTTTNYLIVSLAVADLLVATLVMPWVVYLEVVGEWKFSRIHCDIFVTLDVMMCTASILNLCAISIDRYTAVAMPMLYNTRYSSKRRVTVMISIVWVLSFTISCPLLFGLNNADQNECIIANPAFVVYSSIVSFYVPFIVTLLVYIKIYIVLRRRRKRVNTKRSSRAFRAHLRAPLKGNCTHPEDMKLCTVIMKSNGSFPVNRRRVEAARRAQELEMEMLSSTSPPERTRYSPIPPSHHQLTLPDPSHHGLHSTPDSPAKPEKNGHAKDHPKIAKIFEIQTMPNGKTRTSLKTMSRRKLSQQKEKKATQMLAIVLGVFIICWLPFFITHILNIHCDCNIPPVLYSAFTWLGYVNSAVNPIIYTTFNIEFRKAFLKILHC
Param label: returns condition met when Ki < 0.09 µM, returns condition not met otherwise, including exact equality.

O=S1(=O)c2cccc3cccc(c23)N1CCCCCCN1CCN(c2cccc(Cl)c2Cl)CC1 :: condition not met
O=S1(=O)c2cccc3cccc(c23)N1CCCCCCN1CCN(c2ccccc2Cl)CC1 :: condition not met
O=C1c2cccc3cccc(c23)N1CCCCCCN1CCN(c2ccccc2Cl)CC1 :: condition met
O=C1c2cccc3cccc(c23)N1CCCCCCN1CCN(c2ccccc2F)CC1 :: condition not met

Query compound follows.
[Q] Dear colleague, could you confirm whether Ki of O=C1c2cccc3cccc(c23)N1CCCCCCN1CCN(c2cccc(Cl)c2)CC1 falls below 0.09 µM? Thanks.
[A] condition met
